- protocol_details: PK study in SD rats
- Assay type: in vivo
- reported_conditions: rat, plasma, iv; SD male rats; i.v. (2 mg/kg); mean ± SD (n = 3)
recorded_endpoint: Tmax (min)
Write down the numeric answer in min and omit the unit.

Recorded results for 3 compounds are shown here.
| compound | Tmax [min] |
| --- | --- |
| CC(C)NCC(O)COC(Cn1c2ccccc2c2cc(F)ccc21)Cn1c2ccccc2c2cc(F)ccc21 (stereo not shown) [WK-23] | 4.8 |
| CC(C)NCC(O)COC(Cn1c2ccc(F)cc2c2cc(F)ccc21)Cn1c2ccc(F)cc2c2cc(F)ccc21 (stereo not shown) [WK-22] | 6 |
| OC(CNCCc1c[nH]c2ccccc12)COC(Cn1c2ccccc2c2ccccc21)Cn1c2ccccc2c2ccccc21 (stereo not shown) [DC_517, reference compound] | 4.8 |

Now for another entry.
Problem: Bench note: what Tmax did OC[C@H]1CN(CC(O)COC(Cn2c3ccccc3c3cc(F)ccc32)Cn2c3ccc(F)cc3c3cc(F)ccc32)CCN1 (stereo partly shown) [WK-27] show?
Solution: 6

---

Collected AUC(0-t) values appear next to each entry.
- protocol_details: PK study in SD rats
- Assay type: in vivo
- reported_conditions: rat, plasma, po; SD male rats; p.o. (10 mg/kg); mean ± SD (n = 3)
Your answer should be a plain number; it is taken to be in ng·h/mL.

| molecule | AUC(0-t) / ng·h/mL |
| --- | --- |
| OC[C@H]1CN(CC(O)COC(Cn2c3ccccc3c3cc(F)ccc32)Cn2c3ccc(F)cc3c3cc(F)ccc32)CCN1 (stereo partly shown) [WK-27] | 28.5 |
| OC(CNCCc1c[nH]c2ccccc12)COC(Cn1c2ccccc2c2ccccc21)Cn1c2ccccc2c2ccccc21 (stereo not shown) [DC_517, reference compound] | 2080 |
| CC(C)NCC(O)COC(Cn1c2ccc(F)cc2c2cc(F)ccc21)Cn1c2ccc(F)cc2c2cc(F)ccc21 (stereo not shown) [WK-22] | 1170 |

Now examine the next entry.
Problem: What does the data say about its AUC(0-t)? Entry: CC(C)NCC(O)COC(Cn1c2ccccc2c2cc(F)ccc21)Cn1c2ccccc2c2cc(F)ccc21 (stereo not shown) [WK-23]
Solution: 1970

---

- Tested on: DNMT3B/3L
- protocol_details: Methyltransferase enzymatic selectivity profiling, DNMT3B/3L
- Assay type: biochemical
- reported_conditions: 1 - selected enzyme inhibition/DNMT1 inhibition; 50 µM
Entries annotated with measured Relative selectivity index of DNMT1 vs DNMT 3B/3L

| compound | assay_value |
| --- | --- |
| CC(CO)NCC(O)Cn1c2ccc(F)cc2c2cc(F)ccc21 (centres unmarked) [WK-19] | 1.29 |
| CC(C)(C)NCC(O)COC(Cn1c2ccccc2c2cc(F)ccc21)Cn1c2ccccc2c2cc(F)ccc21 (centres unmarked) [WK-25] | 1.44 |
| CC(C)NCC(O)COC(Cn1c2ccc(F)cc2c2cc(F)ccc21)Cn1c2ccc(F)cc2c2cc(F)ccc21 (centres unmarked) [WK-22] | 0.03 |
| CC(C)NCC(O)COC(Cn1c2ccccc2c2cc(F)ccc21)Cn1c2ccccc2c2cc(F)ccc21 (centres unmarked) [WK-23] | 0.02 |

Problem: Entry OC(CNCCc1c[nH]c2ccccc12)Cn1c2ccccc2c2cc(F)ccc21 (centres unmarked) [WK-1] has what Relative selectivity index of DNMT1 vs DNMT 3B/3L?
Solution: 1.15

Problem: May I ask what Relative selectivity index of DNMT1 vs DNMT 3B/3L has been recorded for OC(CNCCc1c[nH]c2ccccc12)Cn1c2ccc(F)cc2c2cc(F)ccc21 (centres unmarked) [WK-12] ?
Solution: 1.09

Problem: What does the data say about its Relative selectivity index of DNMT1 vs DNMT 3B/3L? Entry: Oc1ccc(CCNCC(O)Cn2c3ccc(F)cc3c3cc(F)ccc32)cc1 (centres unmarked) [WK-13]
Solution: 1.28

Problem: Reported Relative selectivity index of DNMT1 vs DNMT 3B/3L, compound OC[C@H]1CN(CC(O)COC(Cn2c3ccccc3c3cc(F)ccc32)Cn2c3ccc(F)cc3c3cc(F)ccc32)CCN1 (some centres unmarked) [WK-27] : ____
Solution: 0.03

---

- Test system: human DNMT1
- protocol_details: ELISA EpiQuik DNA methyltransferase (DNMT) activity/inhibitor assay
- Format: biochemical
- reported_conditions: 100 μM compound; 200 nM purified DNMT1; EpiQuik kit
Would you mind classing the entries by Inh% at 100 μM? Ranges: range A: < 70%; range B: ≥ 70% and < 90%; range C: ≥ 90%

| compound | group |
| --- | --- |
| OC(CNCCc1ccc(F)cc1)Cn1c2ccccc2c2cc(F)ccc21 (stereo not shown) [WK-2] | range A |
| CC(C)NCC(O)COC(Cn1c2ccccc2c2cc(F)ccc21)Cn1c2ccccc2c2cc(F)ccc21 (stereo not shown) [WK-23] | range C |
| CC(O)CNCC(O)Cn1c2ccccc2c2cc(F)ccc21 (stereo not shown) [WK-6] | range B |

Problem: Exam item: assign CC(CO)NCC(O)Cn1c2ccccc2c2cc(F)ccc21 (stereo not shown) [WK-7] to the correct category.
Solution: range B

Problem: Category lookup for the compound OC(CNCCc1c[nH]c2ccccc12)Cn1c2ccccc2c2ccncc21 (stereo not shown) [WK-20]
Solution: range B

---

- protocol_details: PK study in SD rats
- Format: in vivo
- reported_conditions: rat, plasma, iv; SD male rats; i.v. (2 mg/kg); mean ± SD (n = 3)
recorded_endpoint: half-life (h)
Just the number please, in h, no unit attached.

Example compounds with recorded half-life:
| compound | u | half-life |
| --- | --- | --- |
| CC(C)NCC(O)COC(Cn1c2ccccc2c2cc(F)ccc21)Cn1c2ccccc2c2cc(F)ccc21 (stereo not shown) | h | 7.9 |
| OC(CNCCc1c[nH]c2ccccc12)COC(Cn1c2ccccc2c2ccccc21)Cn1c2ccccc2c2ccccc21 (stereo not shown) [DC_517, reference compound] | h | 6.7 |
| CC(C)NCC(O)COC(Cn1c2ccc(F)cc2c2cc(F)ccc21)Cn1c2ccc(F)cc2c2cc(F)ccc21 (stereo not shown) | h | 12.2 |

Switching to the query record.
Problem: Name the reported half-life value associated with the compound OC[C@H]1CN(CC(O)COC(Cn2c3ccccc3c3cc(F)ccc32)Cn2c3ccc(F)cc3c3cc(F)ccc32)CCN1 (stereo partly shown)
Solution: 11.5

---

- assay_target: DNMT1 (Homo sapiens, UniProt P26358)
- Sequence (P26358 whole entry): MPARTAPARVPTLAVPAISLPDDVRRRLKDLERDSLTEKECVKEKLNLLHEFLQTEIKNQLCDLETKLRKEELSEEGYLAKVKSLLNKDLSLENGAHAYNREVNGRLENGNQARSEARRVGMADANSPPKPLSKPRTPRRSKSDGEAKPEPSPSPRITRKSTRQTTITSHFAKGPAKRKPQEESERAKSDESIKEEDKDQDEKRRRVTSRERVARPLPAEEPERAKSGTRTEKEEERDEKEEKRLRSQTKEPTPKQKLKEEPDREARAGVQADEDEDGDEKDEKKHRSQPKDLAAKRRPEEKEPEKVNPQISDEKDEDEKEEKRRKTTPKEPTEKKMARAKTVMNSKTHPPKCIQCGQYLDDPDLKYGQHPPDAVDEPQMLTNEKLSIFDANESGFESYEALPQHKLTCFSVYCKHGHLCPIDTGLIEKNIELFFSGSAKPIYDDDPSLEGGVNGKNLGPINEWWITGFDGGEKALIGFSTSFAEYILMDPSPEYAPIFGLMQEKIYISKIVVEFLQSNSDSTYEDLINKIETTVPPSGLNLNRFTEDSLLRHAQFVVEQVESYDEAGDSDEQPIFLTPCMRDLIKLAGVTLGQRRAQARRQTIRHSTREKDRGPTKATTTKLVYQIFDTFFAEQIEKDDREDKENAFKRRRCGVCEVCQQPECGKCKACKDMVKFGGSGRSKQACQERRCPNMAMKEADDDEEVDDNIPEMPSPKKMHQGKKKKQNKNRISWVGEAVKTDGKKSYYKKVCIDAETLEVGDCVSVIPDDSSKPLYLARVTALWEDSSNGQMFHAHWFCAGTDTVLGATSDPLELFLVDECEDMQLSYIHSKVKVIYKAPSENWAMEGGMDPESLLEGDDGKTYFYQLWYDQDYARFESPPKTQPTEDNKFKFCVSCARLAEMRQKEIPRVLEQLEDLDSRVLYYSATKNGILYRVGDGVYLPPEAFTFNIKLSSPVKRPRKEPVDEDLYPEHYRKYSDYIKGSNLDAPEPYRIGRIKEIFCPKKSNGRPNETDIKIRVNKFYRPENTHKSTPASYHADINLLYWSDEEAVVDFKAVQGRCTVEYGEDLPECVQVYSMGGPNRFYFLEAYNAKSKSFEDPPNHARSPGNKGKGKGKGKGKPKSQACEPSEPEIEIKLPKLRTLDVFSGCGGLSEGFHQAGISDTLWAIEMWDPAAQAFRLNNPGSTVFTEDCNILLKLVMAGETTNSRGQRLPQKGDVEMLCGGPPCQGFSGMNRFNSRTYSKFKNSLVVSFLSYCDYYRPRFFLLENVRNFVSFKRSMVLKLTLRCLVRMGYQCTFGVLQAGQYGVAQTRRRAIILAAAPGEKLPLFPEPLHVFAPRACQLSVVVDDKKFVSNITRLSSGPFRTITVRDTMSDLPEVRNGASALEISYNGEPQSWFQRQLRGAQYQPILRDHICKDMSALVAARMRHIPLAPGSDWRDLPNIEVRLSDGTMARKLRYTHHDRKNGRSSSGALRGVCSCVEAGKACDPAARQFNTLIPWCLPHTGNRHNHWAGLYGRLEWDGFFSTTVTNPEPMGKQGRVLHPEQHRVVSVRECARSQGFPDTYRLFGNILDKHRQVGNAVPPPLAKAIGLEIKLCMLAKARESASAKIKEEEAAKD
- protocol_details: H3-labelled radioactive methylation assay
- Type: biochemical
- reported_conditions: H3-labeled radioactive methylation assay; 40 nM DNMT1
Listed next: entries and their corresponding IC50.
Supply the numeric figure in µM, leaving out any unit text.

Some entries whose results are on file:
| compound | assay_value |
| --- | --- |
| OC(CNCCc1c[nH]c2ccccc12)COC(Cn1c2ccccc2c2ccccc21)Cn1c2ccccc2c2ccccc21 (stereo not shown) [DC_517, reference compound] | 2.3 |
| OC(CNCCc1ccc(F)cc1)Cn1c2ccc(F)cc2c2cc(F)ccc21 (stereo not shown) | 6 |

Problem: Recorded IC50 for CC(O)CNCC(O)Cn1c2ccc(F)cc2c2cc(F)ccc21 (stereo not shown) , please?
Solution: 10

Problem: Look at this compound and give its reported IC50. OC(CNCCc1c[nH]c2ccccc12)Cn1c2ccccc2c2ccccc21 (stereo not shown) [DC_05, reference compound]
Solution: 52

---

- protocol_details: PK study in SD rats
- Format: in vivo
- reported_conditions: rat, plasma, iv; SD male rats; i.v. (2 mg/kg); mean ± SD (n = 3)
Below, each entry is listed alongside its reported AUC(0-t).
Dear colleague, please return just the value in ng·h/mL, with no unit written.

Examples from the recorded data:
| compound | u | AUC(0-t) |
| --- | --- | --- |
| OC[C@H]1CN(CC(O)COC(Cn2c3ccccc3c3cc(F)ccc32)Cn2c3ccc(F)cc3c3cc(F)ccc32)CCN1 (stereo partly shown) | ng·h/mL | 427 |
| CC(C)NCC(O)COC(Cn1c2ccc(F)cc2c2cc(F)ccc21)Cn1c2ccc(F)cc2c2cc(F)ccc21 (stereo not shown) | ng·h/mL | 867 |
| CC(C)NCC(O)COC(Cn1c2ccccc2c2cc(F)ccc21)Cn1c2ccccc2c2cc(F)ccc21 (stereo not shown) | ng·h/mL | 1060 |

Here is the next item to consider.
Problem: What value of AUC(0-t) has been recorded for this entry: OC(CNCCc1c[nH]c2ccccc12)COC(Cn1c2ccccc2c2ccccc21)Cn1c2ccccc2c2ccccc21 (stereo not shown) [DC_517, reference compound]
Solution: 1020

---

The following molecules are listed with their measured Relative selectivity index of DNMT1 vs G9a values.
- Test system: G9a (histone H3 lysine 9 methyltransferase)
- protocol_details: Methylation inhibition assay (AlphaLisa), G9a
- Assay type: biochemical
- reported_conditions: 1 - selected enzyme inhibition/DNMT1 inhibition; 50 µM
When you answer, write just the number.

| molecule | assay_target | assay_value |
| --- | --- | --- |
| OC[C@H]1CN(CC(O)COC(Cn2c3ccccc3c3cc(F)ccc32)Cn2c3ccc(F)cc3c3cc(F)ccc32)CCN1 (some centres unmarked) | G9a (histone H3 lysine 9 methyltransferase) | 0.97 |

Problem: I am curious: what Relative selectivity index of DNMT1 vs G9a value has been reported for CC(C)NCC(O)COC(Cn1c2ccccc2c2cc(F)ccc21)Cn1c2ccccc2c2cc(F)ccc21 (centres unmarked) ?
Solution: 0.89

Problem: Sample CC(CO)NCC(O)Cn1c2ccc(F)cc2c2cc(F)ccc21 (centres unmarked) — what was its Relative selectivity index of DNMT1 vs G9a?
Solution: 0.91

Problem: Form field: reported Relative selectivity index of DNMT1 vs G9a of CC(C)(C)NCC(O)COC(Cn1c2ccccc2c2cc(F)ccc21)Cn1c2ccccc2c2cc(F)ccc21 (centres unmarked)
Solution: 0.99

Problem: Would you mind telling me what Relative selectivity index of DNMT1 vs G9a value was observed for Oc1ccc(CCNCC(O)Cn2c3ccc(F)cc3c3cc(F)ccc32)cc1 (centres unmarked) ?
Solution: 0.91

Problem: Looking for the measured Relative selectivity index of DNMT1 vs G9a of OC(CNCCc1c[nH]c2ccccc12)Cn1c2ccc(F)cc2c2cc(F)ccc21 (centres unmarked) , can you help?
Solution: 0.93

Problem: Need Relative selectivity index of DNMT1 vs G9a of OC(CNCCc1c[nH]c2ccccc12)Cn1c2ccccc2c2cc(F)ccc21 (centres unmarked) , thanks.
Solution: 0.84

Problem: Tell me the measured Relative selectivity index of DNMT1 vs G9a of CC(C)NCC(O)COC(Cn1c2ccc(F)cc2c2cc(F)ccc21)Cn1c2ccc(F)cc2c2cc(F)ccc21 (centres unmarked) , please.
Solution: 0.9
